All values here come from patent US20230265151A1.

- Experimental target: human GLP-1 receptor (human, UniProt P43220 24-463)
- Method notes: cell-based or functional assay
*1 amine or outer side, *2 acyl side, *3 side chain or, on linkers, in order; H or OH if unused. Where no end group is shown, it is not given here. Side-chain parts run from the residue outwards. [ ]: non-standard residue; d: D form. The star is where a group is joined. αMePhe(2-F) = C[C@](N)(Cc1ccccc1F)C(=O)O; γGlu = O=C(O)[C@H](CCC(=O)[*:2])N[*:1]; C14 diacid = O=C(O)CCCCCCCCCCCCC(=O)*; αMeY = C[C@](N)(Cc1ccc(O)cc1)C(=O)O; αMeF = C[C@](N)(Cc1ccccc1)C(=O)O; αMeL = CC(C)C[C@](C)(N)C(=O)O; Orn = NCCC[C@H](N)C(=O)O; AEEA = NCCOCCOCC(=O)O; Aib = CC(C)(N)C(=O)O
Measurement name: Emax, cAMP (%)
Answers are plain numbers, in %.

YXEGTXTSDXSIXLDXKAQXEXIXXLIEGGKSSGAPPPS (Aib2, αMeF(2F)6, 4Pal10, αMeL13, Orn16, Aib20, αMeF(2F)22, D-Glu24, αMeY25, K17 and K31: K(AEEA2-(γ-Glu)-CO-(CH2)12-CO2H), C-terminal NH2) [Example 88] | 97.1
YXEGTXTSDXSIXLDXKAQXEFIXKLIEGGPSSGAPPPS (Aib2, αMeF(2F)6, 4Pal10, αMeL13, Orn16, Aib20, D-Glu24, K17 and K25: K(AEEA2-(γ-Glu)-(4-(4-tert-butylphenyl)butanoyl)), C-terminal NH2) [Example 67] | 91.7
Y[Aib]EGT[αMePhe(2-F)]TSDV[Aib]I[αMeL]LD[Orn]K([AEEA-AEEA-γGlu-C14 diacid])AQ[Aib]EFIK([AEEA-AEEA-γGlu-C14 diacid])[αMeY]LIEGGPSSGAPPPS-NH2 [Example 115] | 91.6
YXEGTXTSDXSIXLDXKAQXEXIKXLIEGGPSSGAPPPS (Aib2, αMeF(2F)6, 4Pal10, αMeL13, Orn16, Aib20, αMeF22, αMeF25, K17 and K24: K(AEEA2-(γ-Glu)-CO-(CH2)12-CO2H), C-terminal NH2) [Example 84] | 94
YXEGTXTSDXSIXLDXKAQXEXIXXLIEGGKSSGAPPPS (Aib2, αMeF(2F)6, 4Pal10, αMeL13, Orn16, Aib20, 2ClPhe22, D-Glu24, αMeY25, K17 and K31: K(AEEA2-(γ-Glu)-CO-(CH2)12-CO2H), C-terminal NH2) [Example 61] | 82.9
YXEGTXTSDXSIXLDXKAQXKFIXXLIEGGPSSGAPPPS (Aib2, αMeF(2F)6, 4Pal10, αMeL13, Orn16, Aib20, D-Glu24, αMeY25, K17 and K21: K(AEEA3-(γ-Glu)-CO-(CH2)12-CO2H), C-terminal NH2) [Example 77] | 87
YXEGTXTSDXSIXLDXKAQXEXIKXLIEGGPSSGAPPPS (Aib2, αMeF(2F)6, Ac5c10, αMeL13, Orn16, Aib20, αMeF22, αMeF25, K17 and K24: K(AEEA2-(γ-Glu)-CO-(CH2)12-CO2H), C-terminal NH2) [Example 124] | 93.3
YXEGTXTSDKSIXLDXKAQXEFIXXLIEGGPSSGAPPPS (Aib2, αMeF(2F)6, αMeL13, Orn16, Aib20, D-Glu24, αMeY25, K10 and K17: K(AEEA2-(γ-Glu)-CO-(CH2)14-CH3), C-terminal NH2) [Example 29] | 100
YXEGTXTSDXSIXLDXKAQXEFIEKLIEGGPSSGAPPPS (Aib2, αMeF(2F)6, 4Pal10, αMeL13, Orn16, Aib20, K17 and K25: K(AEEA2-(γ-Glu)-(4-(4-tert-butylphenyl)butanoyl)), C-terminal NH2) [Example 68] | 95.9
YXEGTXTSDVSIXLDXKAQXEFIKXLIEGGPSSGAPPPS (Aib2, αMeF(2F)6, αMeL13, Orn16, Aib20, αMeY25, K17 and K24: K(AEEA2-(γ-Glu)-CO-(CH2)12-CO2H), C-terminal NH2) [Example 114] | 91.7

Give the measured Emax, cAMP for Y[Aib]EGT[αMePhe(2-F)]TSDV[Aib]I[αMeL]LD[Orn]K([AEEA-AEEA-γGlu-C14 diacid])AQ[Aib]E[αMeF]IK([AEEA-AEEA-γGlu-C14 diacid])[αMeY]LIEGGPSSGAPPPS-NH2 [Example 119]
99.4
